Cited source: PubChem BioAssay (NCI)

# Tested on: SK-OV-3 ovarian
# assayProtocol: NCI-60 one-dose screen, 48 h (100 = growth as untreated, 0 = no growth, -100 = all killed)
# conditionParameters: 10 µM unless noted
Compounds without any hit were thinned out: in the full panel of roughly 83,000, 20% have a hit.
Each item that follows carries a reported growth.
Kindly answer with a numeric value in %, unit omitted.

{"compound": "O=C(Cn1cc(CN2C(=O)c3ccccc3S2(=O)=O)nn1)Nc1cccc(Cl)c1", "systemTested": "SK-OV-3 ovarian", "u": "%", "resultNumber": 79.3}

Now for a further compound.
Ask | Check the records and state growth for `CC(=O)c1cc(-c2ccccc2N)n(-c2ccc3c(c2)OCO3)c1C`
Reply | 33.7
